Record form. Attribute: pIC50. Fill in for each entry.
molecular target: Cdk9/cyclinT1 (Homo sapiens, UniProt P50750); assay: Cdk9/cyclinT1 IMAP Protocol (fluorescence polarization kinase assay); conditions: Cdk9_cyclinT1_IC50, Table V; generated using one of the two Cdk9/cyclinT1 assays (IMAP or Alpha Screen), not stated which; ATP 6 uM
Sequence (P50750 whole entry): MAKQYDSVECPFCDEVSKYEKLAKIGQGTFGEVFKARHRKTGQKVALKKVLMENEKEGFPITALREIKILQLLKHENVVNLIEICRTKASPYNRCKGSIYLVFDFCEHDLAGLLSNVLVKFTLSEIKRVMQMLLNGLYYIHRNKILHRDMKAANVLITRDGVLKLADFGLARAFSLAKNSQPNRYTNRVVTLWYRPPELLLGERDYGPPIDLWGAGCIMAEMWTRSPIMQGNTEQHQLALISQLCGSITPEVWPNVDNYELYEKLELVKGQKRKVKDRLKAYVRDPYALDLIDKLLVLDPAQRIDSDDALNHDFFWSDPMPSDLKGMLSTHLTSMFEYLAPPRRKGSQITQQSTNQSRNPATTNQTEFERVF
Sequence (O60563 whole entry partner): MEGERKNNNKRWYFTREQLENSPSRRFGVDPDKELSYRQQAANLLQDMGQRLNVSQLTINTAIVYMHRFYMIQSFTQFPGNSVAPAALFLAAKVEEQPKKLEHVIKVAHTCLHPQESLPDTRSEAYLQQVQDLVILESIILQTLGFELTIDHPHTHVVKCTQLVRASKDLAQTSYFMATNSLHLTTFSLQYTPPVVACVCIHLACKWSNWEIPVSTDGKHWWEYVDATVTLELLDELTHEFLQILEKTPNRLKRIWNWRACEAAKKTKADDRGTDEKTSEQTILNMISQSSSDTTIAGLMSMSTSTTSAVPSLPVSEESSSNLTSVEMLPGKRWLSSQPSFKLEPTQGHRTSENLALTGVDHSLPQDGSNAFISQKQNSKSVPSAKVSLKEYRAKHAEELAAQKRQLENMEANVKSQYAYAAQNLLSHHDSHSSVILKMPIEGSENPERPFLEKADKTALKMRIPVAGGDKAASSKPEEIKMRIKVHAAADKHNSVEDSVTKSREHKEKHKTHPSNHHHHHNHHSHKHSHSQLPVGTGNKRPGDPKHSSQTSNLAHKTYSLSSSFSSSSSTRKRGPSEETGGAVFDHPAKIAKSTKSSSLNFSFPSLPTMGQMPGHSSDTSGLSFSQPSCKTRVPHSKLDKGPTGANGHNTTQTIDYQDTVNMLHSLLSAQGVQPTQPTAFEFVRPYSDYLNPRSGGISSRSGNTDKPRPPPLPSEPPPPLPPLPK
As a rule, pIC50 stands for the negative log10 of the concentration, concentration in M.

pIC50 recorded for this compound, `C[C@H](Nc1cccc(-c2cc(NC(=O)[C@@H]3CCCNC3)ncc2Cl)n1)C1CCCCC1` , is 8.10

pIC50 recorded for this compound, `COC[C@@H]1C[C@@H](C(=O)Nc2cc(-c3ccc(F)c(NCC4(OC)CCOCC4)n3)c(Cl)cn2)CN1` , is 9.00

Notebook: COC[C@H]1CC[C@H](C(=O)Nc2cc(-c3cccc(NCC4CCOCC4)n3)c(Cl)cn2)CN1 (single isomer, unassigned) , pIC50 read as 8.15

// field: pIC50; key: CO[C@@H]1CNC[C@H](C(=O)Nc2cc(-c3cccc(NCC4CCOCC4)n3)c(Cl)cn2)C1 (racemic) [Example 184] ; value = 7.96

Noted for CC1(C)COC[C@@H](CNc2cccc(-c3cc(NC(=O)[C@@H]4CCCNC4)ncc3Cl)n2)O1 (single isomer, unassigned) : its pIC50 reads 9.00

Source: patent US20110130380A1
